target: JAK1 kinase (Homo sapiens); construct: purchased Invitrogen PV4744; assay: In vitro inhibitory activity on JAK1 kinase (ADP-Glo Kinase Assay); type: biochemical; conditions: JAK1 kinase 4 nM, 1 mM ATP
Measured Quantity: IC50

Illustrative cases are given below, each with its answer.
Cn1cc(Nc2nccc(C3=CC4CCC(C3)N4C(=O)CC(F)F)n2)cn1 (stereo not drawn): 100 to 300 nM
Cn1cc(Nc2nccc(C3=CC4CCC(C3)N4C(=O)NCC(F)(F)F)n2)cn1 (stereo not drawn): 100 to 300 nM

Kindly consider the entry below.
Lab note: measured IC50 of "Cc1cnc(Nc2cnn(C)c2)nc1C1=C[C@@H]2CC[C@H](C1)N2C(=O)[C@@H]1CC1(F)F" was 100 to 300 nM

* * *

Below: a set of entries, each annotated with reported IC50.
biological target: JAK1 kinase (Homo sapiens, UniProt P23458); construct: purchased Invitrogen PV4744; experiment: In vitro inhibitory activity on JAK1 kinase (ADP-Glo Kinase Assay); assay type: biochemical; details: JAK1 kinase 4 nM, 1 mM ATP
Sequence (P23458 866-1154 limits assumed): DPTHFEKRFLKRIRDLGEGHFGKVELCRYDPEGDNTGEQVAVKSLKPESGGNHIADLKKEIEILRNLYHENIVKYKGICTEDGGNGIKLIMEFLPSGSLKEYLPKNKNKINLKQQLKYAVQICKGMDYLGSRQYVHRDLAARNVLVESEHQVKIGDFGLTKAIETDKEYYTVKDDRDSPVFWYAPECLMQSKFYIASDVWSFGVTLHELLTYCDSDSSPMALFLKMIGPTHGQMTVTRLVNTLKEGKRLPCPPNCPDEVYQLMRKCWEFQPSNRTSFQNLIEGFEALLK

Illustrative cases are given below, each with its answer.
O=C(NCC(F)(F)F)N1C2C=C(c3ccnc(Nc4cnn(CCO)c4)n3)CC1CC2 (stereo not shown): < 100 nM
Cn1cc(Nc2nccc(C3=CC4CCC(C3)N4C(=O)N3CC(C#N)C3)n2)cn1 (stereo not shown): > 1000 nM
C[C@@H](NC(=O)N1C2C=C(c3ccnc(Nc4cnn(C)c4)n3)CC1CC2)C(F)(F)F (stereo partly shown): 300 to 1000 nM
O=C([C@@H]1CC1(F)F)N1C2C=C(c3ccnc(Nc4cnn(C5COC5)c4)n3)CC1CC2 (stereo partly shown): 300 to 1000 nM
Cn1cc(Nc2nccc(C3=CC4CCC(C3)N4S(=O)(=O)NCC#N)n2)cn1 (stereo not shown): > 1000 nM

Lab note: measured IC50 of Cn1cc(Nc2nccc(C3=C[C@@H]4CC[C@H](C3)N4C(=O)[C@@H]3CC3(F)F)n2)cn1 (single isomer, unassigned) was < 100 nM

Lab note: measured IC50 of Cn1cc(Nc2nccc(C3=CC4CCC(C3)N4C(=O)C3(C)CC3(F)F)n2)cn1 (stereo not shown) was > 1000 nM

Lab note: measured IC50 of Cc1cnc(Nc2cnn(CC(C)(C)O)c2)nc1C1=C[C@@H]2CC[C@H](C1)N2C(=O)NCC(F)(F)F (single isomer, unassigned) was < 100 nM

Lab note: measured IC50 of Cn1cc(Nc2nccc(C3=CC4CCC(C3)N4C(=O)NC3(C#N)CC3)n2)cn1 (stereo not shown) was > 1000 nM

Lab note: measured IC50 of "Cc1cnc(Nc2cnn(C)c2)nc1C1=C[C@H]2CC[C@@H](C1)N2C(=O)NCC(F)(F)F" was < 100 nM

Lab note: measured IC50 of Cn1cc(Nc2nccc(C3=CC4CCC(C3)N4C(=O)c3ccc(C(F)(F)F)cn3)n2)cn1 (stereo not shown) was > 1000 nM

Lab note: measured IC50 of C#CCC(=O)N1C2C=C(c3ccnc(Nc4cnn(C)c4)n3)CC1CC2 (stereo not shown) was > 1000 nM

* * *

experiment: Pharmacokinetic study in rats after oral administration; format: in vivo, SD rats; conditions: rat; male SD rats, oral 5 mg/kg, plasma
Measured Quantity: AUC(0-t)

Illustrative cases are given below, each with its answer.
Cn1cc(Nc2nccc(C3=C[C@@H]4CC[C@H](C3)N4C(=O)[C@@H]3CC3(F)F)n2)cn1 (single isomer, unassigned): 1000 to 2000 ng·h/mL
Cn1cc(Nc2nccc(C3=CC4CCC(C3)N4C(=O)[C@@H]3CC3(F)F)n2)cn1 (stereo partly shown): > 2000 ng·h/mL
Cn1cc(Nc2nccc(C3=CC4CCC(C3)N4C(=O)NCC(F)(F)F)n2)cn1 (stereo not shown): 1000 to 2000 ng·h/mL

Lab note: measured AUC(0-t) of "Cn1cc(Nc2nccc(C3=C[C@H]4CC[C@@H](C3)N4C(=O)[C@@H]3CC3(F)F)n2)cn1" was > 2000 ng·h/mL

* * *

Below: a set of entries, each annotated with reported IC50.
biological target: JAK1 kinase (Homo sapiens, UniProt P23458); construct: purchased Invitrogen PV4744; assay: In vitro inhibitory activity on JAK1 kinase (ADP-Glo Kinase Assay); assay type: biochemical; details: JAK1 kinase 4 nM, 1 mM ATP

Illustrative cases are given below, each with its answer.
Cc1cnc(Nc2cnn(C)c2)nc1C1=CC2CCC(C1)N2C(=O)NCC(F)(F)F (stereo not shown): < 100 nM
Cn1cc(Nc2nccc(C3=CC4CCC(C3)N4C(=O)CC#N)n2)cn1 (stereo not shown): 100 to 300 nM
Cn1cc(Nc2ncc(F)c(C3=C[C@H]4CC[C@@H](C3)N4C(=O)NCC(F)(F)F)n2)cn1: < 100 nM

Kindly consider the entry below.
Lab note: measured IC50 of Cn1cc(Nc2nccc(C3=CC4CCC(C3)N4C(=O)CCC(F)(F)F)n2)cn1 (stereo not shown) was 300 to 1000 nM

* * *

biological target: JAK1 kinase (Homo sapiens, UniProt P23458); construct: purchased Invitrogen PV4744; assay: In vitro inhibitory activity on JAK1 kinase (ADP-Glo Kinase Assay); format: biochemical; conditions: JAK1 kinase 4 nM, 1 mM ATP
Below: a set of entries, each annotated with reported IC50.

Illustrative cases are given below, each with its answer.
Cc1cnc(Nc2cn(C)nc2C)nc1C1=C[C@H]2CC[C@@H](C1)N2C(=O)NCC(F)(F)F: < 100 nM
Cn1cc(Nc2nccc(C3=C[C@H]4CC[C@@H](C3)N4C(=O)[C@@H]3CC3(F)F)n2)cn1: < 100 nM
Cn1cc(Nc2nccc(C3=CC4CCC(C3)N4C(=O)C3CC3c3ccccc3)n2)cn1 (stereo not shown): 300 to 1000 nM
Cc1cnc(Nc2cnn(C)c2)nc1C1=C[C@@H]2CC[C@H](C1)N2C(=O)NCC(F)(F)F: < 100 nM
Cn1cc(Nc2nccc(C3=CC4CCC(C3)N4C(=O)NCCOC(F)(F)F)n2)cn1 (stereo not shown): 100 to 300 nM

Lab note: measured IC50 of Cn1cc(Nc2nccc(C3=CC4CCC(C3)N4C(=O)C(=O)NCC(F)(F)F)n2)cn1 (stereo not shown) was 300 to 1000 nM

Lab note: measured IC50 of COC1CC(C(=O)N2C3C=C(c4ccnc(Nc5cnn(C)c5)n4)CC2CC3)C1 (stereo not shown) was > 1000 nM

Lab note: measured IC50 of "Cc1cnc(Nc2cnn(C)c2)nc1C1=C[C@H]2CC[C@@H](C1)N2C(=O)[C@@H]1CC1(F)F" was < 100 nM

* * *

biological target: JAK1 kinase (Homo sapiens); construct: purchased Invitrogen PV4744; test: In vitro inhibitory activity on JAK1 kinase (ADP-Glo Kinase Assay); format: biochemical; conditions: JAK1 kinase 4 nM, 1 mM ATP
Measured Quantity: IC50

Illustrative cases are given below, each with its answer.
Cn1cc(Nc2nccc(C3=CC4CCC(C3)N4C(=O)C3(C#N)CCOCC3)n2)cn1 (centres unmarked): 300 to 1000 nM
O=C([C@@H]1CC1(F)F)N1C2C=C(c3ccnc(Nc4cnn(CCO)c4)n3)CC1CC2 (some centres unmarked): 100 to 300 nM
Cc1cnc(Nc2cnn(CC(C)(C)O)c2)nc1C1=C[C@H]2CC[C@@H](C1)N2C(=O)NCC(F)(F)F: < 100 nM
Cn1cc(Nc2nccc(C3=CC4CCC(C3)N4C(=O)C3CCOC3)n2)cn1 (centres unmarked): 100 to 300 nM
Cn1cc(Nc2ncc(Cl)c(C3=C[C@@H]4CC[C@H](C3)N4C(=O)[C@@H]3CC3(F)F)n2)cn1: < 100 nM
Cn1cc(Nc2nccc(C3=CC4CCC(C3)N4C(=O)CC3CC(F)(F)C3)n2)cn1 (centres unmarked): < 100 nM
Cn1cc(Nc2nccc(C3=CC4CCC(C3)N4C(=O)C3CC3F)n2)cn1 (centres unmarked): < 100 nM

Kindly consider the entry below.
Lab note: measured IC50 of "Cn1cc(Nc2nccc(C3=C[C@H]4CC[C@@H](C3)N4C(=O)NCC(F)(F)F)n2)cn1" was < 100 nM

* * *

target: JAK1 kinase (Homo sapiens); construct: purchased Invitrogen PV4744; experiment: In vitro inhibitory activity on JAK1 kinase (ADP-Glo Kinase Assay); format: biochemical; settings: JAK1 kinase 4 nM, 1 mM ATP
Measured Quantity: IC50

Lab note: measured IC50 of O=C(NCC(F)(F)F)N1C2C=C(c3ccnc(Nc4cnn(C5CC5)c4)n3)CC1CC2 (stereo not drawn) was < 100 nM

Lab note: measured IC50 of C[C@H](NC(=O)N1C2C=C(c3ccnc(Nc4cnn(C)c4)n3)CC1CC2)C(F)(F)F (stereo partly drawn) was < 100 nM

* * *

molecular target: JAK1 kinase (Homo sapiens); construct: purchased Invitrogen PV4744; assay: In vitro inhibitory activity on JAK1 kinase (ADP-Glo Kinase Assay); assay type: biochemical; conditions: JAK1 kinase 4 nM, 1 mM ATP
Measured Quantity: IC50

Cn1cc(Nc2nccc(C3=CC4CCC(C3)N4C(=O)C3CC3(C)C)n2)cn1 (stereo not shown): > 1000 nM
O=C([C@@H]1CC1(F)F)N1C2C=C(c3ccnc(Nc4cnn(C5CC5)c4)n3)CC1CC2 (stereo partly shown): 100 to 300 nM

Lab note: measured IC50 of CCn1cc(Nc2nccc(C3=CC4CCC(C3)N4C(=O)[C@@H]3CC3(F)F)n2)cn1 (stereo partly shown) was 100 to 300 nM

Lab note: measured IC50 of Cn1cc(Nc2nccc(C3=CC4CCC(C3)N4C(=O)C(F)(F)C3CC3)n2)cn1 (stereo not shown) was 100 to 300 nM

These entries and their values trace back to patent US20220348572A1.
